METHOD_SUMMARY: CCK-8 cell viability assay
Format: cell-based, Murine
RUN_CONDITIONS: mouse; 40 μM, 24 h, RAW 264.7 macrophages, mean ± SD, n = 3; read-out: Cell viability (%)
Protocol: Murine RAW 264.7 macrophages were purchased from the American Tissue Culture Collection (Manassas, USA). […] The effects of 19 constituents on the viability of RAW 264.7 macrophages were assessed by CCK-8 assay. […] After 2 h, the absorbance of each well was measured at 450 nm in a microplate reader. Cell viability was calculated using the following formular: […]
Provide the recorded viability at 24 h, 40 µM for the entries that follow.
Give bare numbers, in %.

O=c1c(O[C@@H]2O[C@H](CO)[C@@H](O)[C@H](O)[C@H]2O)c(-c2ccc(O)cc2)oc2cc(O)cc(O)c12 ... 95

Then there is this compound:
Challenge: Any idea what its viability at 24 h, 40 µM is? The compound is O=C1C[C@@H](c2ccc(O)cc2)Oc2cc(O)cc(O)c21
Response given: 93
